system: Escherichia coli IAI1; test: fold change of Cadaverine concentration vs plate DMSO controls (fold change (ratio)); higher = more amine produced, active = hit call of the paper (significant change in both replicates, either direction); details: 20 µM; incubation time: 27 h, anaerobic, 37 °C
Counter-ions that a name gives are not always drawn.
Condition met means recorded fold change of Cadaverine concentration is 1 or above; Condition not met means it is below 1.

Inquiry: Confirm if fold change of Cadaverine concentration reported for the compound "Fc1ccc(Oc2ccnc3cc(Cl)cc(Cl)c23)cc1" is 1 or above.
Reply text: Condition not met

Inquiry: Confirm if fold change of Cadaverine concentration reported for the compound CCCCCC[C@H]1C(=O)O[C@H](C)[C@H](NC(=O)c2cccc(NC=O)c2O)C(=O)O[C@@H](C)[C@@H]1OC(=O)CC(C)C [Antimycin A] is 1 or above.
Reply text: Condition met

Inquiry: Confirm if fold change of Cadaverine concentration reported for the compound "COc1cccc(C(=O)NN(C(=O)c2cc(C)cc(C)c2)C(C)(C)C)c1C" is 1 or above.
Reply text: Condition not met

Inquiry: Confirm if fold change of Cadaverine concentration reported for the compound "O=c1[nH]c2ccccc2n1CCCN1CCC(n2c(=O)[nH]c3cc(Cl)ccc32)CC1" is 1 or above.
Reply text: Condition met

Inquiry: Confirm if fold change of Cadaverine concentration reported for the compound C=C1CC[C@@]2(O)[C@H]3Cc4ccc(O)c5c4[C@@]2(CCN3CC2CC2)[C@H]1O5 [Nalmefene hydrochloride] is 1 or above.
Reply text: Condition met

Inquiry: Confirm if fold change of Cadaverine concentration reported for the compound "O=c1c2ccccc2[se]n1-c1ccccc1" is 1 or above.
Reply text: Condition not met

Inquiry: Confirm if fold change of Cadaverine concentration reported for the compound "CCCCCCCCCCCCN=C(N)N" is 1 or above.
Reply text: Condition not met

Proceed to the following item.
Inquiry: Confirm if fold change of Cadaverine concentration reported for the compound CN1C[C@H](C(=O)N[C@]2(C)O[C@@]3(O)[C@@H]4CCCN4C(=O)[C@H](Cc4ccccc4)N3C2=O)C[C@@H]2c3cccc4[nH]cc(c34)C[C@H]21 [Dihydroergotamine tartrate] is 1 or above.
Reply text: Condition not met

====

Examples of compounds with documented growth follow.
test system: Clostridium sporogenes DSM 1664; experiment: growth (OD595) fold change vs plate DMSO controls (fold change (ratio)); higher = more growth; conditions: 20 µM; incubation time: 27 h, anaerobic, 37 °C
Counter-ions that a name gives are not always drawn.

Use the examples below as a reference point.
Tested on Clostridium sporogenes DSM 1664: "Nc1c(Cl)c(F)nc(OCC(=O)O)c1Cl" . Observed growth: 0.964

Tested on Clostridium sporogenes DSM 1664: CCCCCC[C@H]1C(=O)O[C@H](C)[C@H](NC(=O)c2cccc(NC=O)c2O)C(=O)O[C@@H](C)[C@@H]1OC(=O)CC(C)C [Antimycin A] . Observed growth: 1.09

Tested on Clostridium sporogenes DSM 1664: "Cc1cc(C2CC2)nc(Nc2ccccc2)n1" . Observed growth: 0.944

Tested on Clostridium sporogenes DSM 1664: COCC(C)N(C(=O)CCl)c1c(C)csc1C (configuration not stated) . Observed growth: 1.06

Tested on Clostridium sporogenes DSM 1664: COCC(=O)N(c1c(C)cccc1C)C(C)C(=O)OC (configuration not stated) . Observed growth: 0.957

Next:
Tested on Clostridium sporogenes DSM 1664: "CCCCCCCCCCCCN=C(N)N" . Observed growth: 1.1

Tested on Clostridium sporogenes DSM 1664: c1ccc2c(c1)OCC(C1=NCCN1)O2 (configuration not stated) [Idazoxan hydrochloride] . Observed growth: 1.09

====

system: Klebsiella aerogenes DSM 30053; test: fold change of Cadaverine concentration vs plate DMSO controls (fold change (ratio)); higher = more amine produced, active = hit call of the paper (significant change in both replicates, either direction); conditions: 20 µM; incubation time: 27 h, anaerobic, 37 °C
Structures can show the parent of a compound that is named as a salt.
parameter: fold change of Cadaverine concentration
Enter the number alone.

For reference, reported fold change of Cadaverine concentration for CC(=O)O[C@H]1C[C@@H]2CC[C@@H]3[C@H](CC[C@@]4(C)[C@H]3C[C@H]([N+]3(C)CCCCC3)[C@@H]4OC(C)=O)[C@@]2(C)C[C@@H]1[N+]1(C)CCCCC1 [Pancuronium bromide] stands at 1.03

For reference, reported fold change of Cadaverine concentration for CN(C)C(=O)Oc1cccc([N+](C)(C)C)c1 [Neostigmine bromide] stands at 1

For reference, reported fold change of Cadaverine concentration for ClC1C(Cl)C(Cl)C(Cl)C(Cl)C1Cl (configuration not stated) stands at 0.994

For reference, reported fold change of Cadaverine concentration for OC(Cc1ccccc1Cl)(Cn1nc[nH]c1=S)C1(Cl)CC1 (configuration not stated) stands at 0.974

For reference, reported fold change of Cadaverine concentration for "O=P(Oc1ccccc1)(Oc1ccccc1)Oc1ccccc1" stands at 1.14

Next:
For reference, reported fold change of Cadaverine concentration for "CO/C=C(/C(=O)OC)c1ccccc1COc1cccc(C(F)(F)F)n1" stands at 1

For reference, reported fold change of Cadaverine concentration for "COP(=S)(OC)Oc1nc(Cl)c(Cl)cc1Cl" stands at 0.991

For reference, reported fold change of Cadaverine concentration for CC(CCc1ccccc1)NC(C)C(O)c1ccc(O)cc1 (configuration not stated) stands at 1.02

For reference, reported fold change of Cadaverine concentration for c1ccc2c(c1)OCC(C1=NCCN1)O2 (configuration not stated) [Idazoxan hydrochloride] stands at 0.996

For reference, reported fold change of Cadaverine concentration for CN1[C@@H]2C[C@@H](OC(=O)[C@H](CO)c3ccccc3)C[C@H]1[C@@H]1O[C@@H]12 [Scopolamine hydrochloride] stands at 1.02

For reference, reported fold change of Cadaverine concentration for COP(=O)(NC(C)=O)SC (configuration not stated) stands at 0.997

====

tested on: Escherichia coli IAI1; test: fold change of Cadaverine concentration vs plate DMSO controls (fold change (ratio)); higher = more amine produced, active = hit call of the paper (significant change in both replicates, either direction); settings: 20 µM; incubation time: 27 h, anaerobic, 37 °C
Structures can show the parent of a compound that is named as a salt.
parameter: fold change of Cadaverine concentration
Enter the number alone.

Use the examples below as a reference point.
For reference, reported fold change of Cadaverine concentration for C=CCN1CC[C@]23c4c5ccc(O)c4O[C@H]2C(=O)CC[C@@]3(O)[C@H]1C5 [Naloxone hydrochloride] stands at 0.994

For reference, reported fold change of Cadaverine concentration for "CNC(=O)Oc1cccc(/N=C/N(C)C)c1" stands at 1.02

For reference, reported fold change of Cadaverine concentration for "COCC(=O)N(c1c(C)cccc1C)[C@H](C)C(=O)OC" stands at 0.99

For reference, reported fold change of Cadaverine concentration for CCC(=O)O[C@H]1CC[C@H]2[C@@H]3CCC4=CC(=O)CC[C@]4(C)[C@H]3CC[C@]12C [Testosterone propionate] stands at 0.985

For reference, reported fold change of Cadaverine concentration for c1ccc2c(c1)cc1ccc3cccc4ccc2c1c34 [Benzo[a]pyrene] stands at 1

Next:
For reference, reported fold change of Cadaverine concentration for "Cc1cc(C2CC2)nc(Nc2ccccc2)n1" stands at 1.01

====

Examples of compounds with documented fold change of Cadaverine concentration follow.
system: Escherichia coli IAI1; experiment: fold change of Cadaverine concentration vs plate DMSO controls (fold change (ratio)); higher = more amine produced, active = hit call of the paper (significant change in both replicates, either direction); settings: 20 µM; incubation time: 27 h, anaerobic, 37 °C
Enter the number alone.

For reference, reported fold change of Cadaverine concentration for CCOC(=O)c1cncn1[C@H](C)c1ccccc1 [Etomidate] stands at 0.973

For reference, reported fold change of Cadaverine concentration for "CCCN(CCOc1c(Cl)cc(Cl)cc1Cl)C(=O)n1ccnc1" stands at 1.02

For reference, reported fold change of Cadaverine concentration for "Oc1ccccc1-c1ccccc1" stands at 1.01

For reference, reported fold change of Cadaverine concentration for CN1CCN(C(=O)OC2c3nccnc3C(=O)N2c2ccc(Cl)cn2)CC1 (stereo not given) stands at 0.979

Lab note: next compound to report on.
For reference, reported fold change of Cadaverine concentration for O=C(NCNC(=O)NC1C(=O)NC(=O)N1CO)NC1C(=O)NC(=O)N1CO (stereo not given) stands at 1

====

test system: Ruminococcus gnavus DSM 108212; assay: growth (OD595) fold change vs plate DMSO controls (fold change (ratio)); higher = more growth; conditions: 20 µM; incubation time: 27 h, anaerobic, 37 °C
parameter: growth
Enter the number alone.

For reference, reported growth for "C[C@]12CC[C@H](O)C[C@H]1CC[C@@H]1[C@@H]2C[C@@H](O)[C@]2(C)[C@@H](C3=CC(=O)OC3)CC[C@]12O" stands at 0.974

Next:
For reference, reported growth for "CC1(C)CON(Cc2ccccc2Cl)C1=O" stands at 0.976

For reference, reported growth for "C[C@]12CC[C@H]3[C@@H](CCC4=CC(=O)CC[C@@H]43)[C@@H]1CC[C@@H]2O" stands at 1.01

For reference, reported growth for OC(Cn1cncn1)(c1ccc(F)cc1)c1ccccc1F (stereo not given) stands at 0.99

For reference, reported growth for O=C(NC(=O)c1c(F)cccc1F)Nc1ccc(OC(F)(F)C(F)OC(F)(F)F)c(Cl)c1 (stereo not given) stands at 0.995

For reference, reported growth for COCC(=O)N(c1c(C)cccc1C)C(C)C(=O)OC (stereo not given) stands at 1.02

For reference, reported growth for "O=C(O)C(F)(F)C(F)(F)C(F)(F)C(F)(F)C(F)(F)C(F)(F)F" stands at 0.995

For reference, reported growth for "N#C/N=C1\SCCN1Cc1ccc(Cl)nc1" stands at 1

For reference, reported growth for CC(Oc1ccc(Oc2nc3ccc(Cl)cc3o2)cc1)C(=O)O (racemic) stands at 1.01

For reference, reported growth for "CNC(=O)ON=C(C)SC" stands at 0.984
